target: DNA gyrase (Staphylococcus aureus, UniProt P0A0K8+P20831); experiment: Inhibition of Staphylococcus aureus Gyrase supercoiling activity assessed as reduction in supercoiling pBR322 DNA by measuring relaxation by bromophenol blue staining based TAE gel method
Sequence (P0A0K8 whole entry): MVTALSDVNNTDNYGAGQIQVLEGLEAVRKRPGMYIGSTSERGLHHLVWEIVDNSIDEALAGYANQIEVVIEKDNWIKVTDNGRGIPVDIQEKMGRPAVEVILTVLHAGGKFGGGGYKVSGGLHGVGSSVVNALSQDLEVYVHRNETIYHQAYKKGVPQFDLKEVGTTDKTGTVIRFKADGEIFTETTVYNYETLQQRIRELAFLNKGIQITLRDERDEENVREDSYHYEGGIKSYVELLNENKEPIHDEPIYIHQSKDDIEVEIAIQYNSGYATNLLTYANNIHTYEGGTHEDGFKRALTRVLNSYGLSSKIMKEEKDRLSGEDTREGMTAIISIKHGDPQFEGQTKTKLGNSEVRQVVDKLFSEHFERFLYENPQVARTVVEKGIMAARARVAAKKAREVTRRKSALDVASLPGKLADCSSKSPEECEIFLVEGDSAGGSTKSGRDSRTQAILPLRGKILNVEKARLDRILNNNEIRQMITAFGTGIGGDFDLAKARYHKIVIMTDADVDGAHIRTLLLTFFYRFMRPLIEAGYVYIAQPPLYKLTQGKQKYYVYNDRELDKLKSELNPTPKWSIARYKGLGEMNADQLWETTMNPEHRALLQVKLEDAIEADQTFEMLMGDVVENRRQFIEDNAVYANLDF
Sequence (P20831 whole entry): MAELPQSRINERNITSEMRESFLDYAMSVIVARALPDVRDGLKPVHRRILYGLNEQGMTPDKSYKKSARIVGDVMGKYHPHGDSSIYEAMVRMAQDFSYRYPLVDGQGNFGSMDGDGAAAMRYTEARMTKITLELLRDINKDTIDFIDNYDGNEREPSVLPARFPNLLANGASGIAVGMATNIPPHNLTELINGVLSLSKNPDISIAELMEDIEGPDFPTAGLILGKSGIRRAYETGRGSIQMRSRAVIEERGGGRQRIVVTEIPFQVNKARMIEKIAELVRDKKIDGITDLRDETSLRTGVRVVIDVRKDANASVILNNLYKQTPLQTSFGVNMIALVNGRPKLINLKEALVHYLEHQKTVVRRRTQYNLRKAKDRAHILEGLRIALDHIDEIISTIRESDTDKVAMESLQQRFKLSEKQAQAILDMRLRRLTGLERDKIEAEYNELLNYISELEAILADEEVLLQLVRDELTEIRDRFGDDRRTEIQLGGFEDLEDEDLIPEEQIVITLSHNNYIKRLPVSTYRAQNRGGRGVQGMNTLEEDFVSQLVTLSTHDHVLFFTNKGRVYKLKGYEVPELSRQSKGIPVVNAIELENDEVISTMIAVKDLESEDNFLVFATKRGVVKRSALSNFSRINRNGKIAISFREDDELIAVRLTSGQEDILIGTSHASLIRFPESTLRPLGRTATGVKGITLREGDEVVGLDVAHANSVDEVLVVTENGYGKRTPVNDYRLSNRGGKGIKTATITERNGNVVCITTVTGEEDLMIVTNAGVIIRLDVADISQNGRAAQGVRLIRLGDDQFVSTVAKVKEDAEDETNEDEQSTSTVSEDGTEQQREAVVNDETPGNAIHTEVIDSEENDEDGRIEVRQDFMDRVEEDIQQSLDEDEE
measured-endpoint: pIC50
In plain terms, pIC50 is the concentration in mol/L turned into minus its base-10 logarithm.

compound	assay-result
COc1ccc2ncc(F)c(C[C@H](O)[C@H]3OC[C@H](NCc4cc5c(nn4)OCCS5)CO3)c2n1	6.66
COc1ccc2ccc(F)c(C[C@H](O)[C@H]3OC[C@H](NCc4cc5c(cn4)OCCO5)CO3)c2n1	7.89
COc1ccc2ncc(F)c(C(O)C[C@H]3OC[C@H](NCc4ccc5c(n4)NC(=O)CO5)CO3)c2c1 (mixture of isomers)	6.28
COc1ccc2ncc(F)c(C[C@H](O)[C@H]3OC[C@H](NCc4cnc5c(n4)OCCO5)CO3)c2n1	6.44
COc1ccc2ncc(F)c(C[C@H](O)[C@H]3OC[C@H](NCc4ccc5c(c4)OCCO5)CO3)c2c1	7.51
COc1ccc2ncc(=O)n(CC(O)[C@H]3OC[C@H](NCc4ccc5c(c4)OCCO5)CO3)c2c1 (mixture of isomers)	7.72

Here COc1ccc2ncc(F)c(C(O)C[C@H]3OC[C@H](NCc4ccc5c(n4)NC(=O)CS5)CO3)c2c1 (mixture of isomers) was tested on DNA gyrase (Staphylococcus aureus, UniProt P0A0K8+P20831), and its pIC50 came to 6.48
